Tested on: Right cardiac atrium
Test: Increase in absolute refractory period in Guinea pig right atria at 100 uM incubated for 30 mins by electrogram
Assay type: functional
Settings: Cavia porcellus
Activity calls are given as the source filed them. The rule behind the calls is not given here.
Please answer using one outcome listed in active, inactive

Record excerpt, results attached:
>>> qualitative_label("Cc1cccc(C)c1OCC(C)N (stereo unspecified)")
"active"
>>> qualitative_label("CC(COc1c(Cl)cccc1Cl)NCc1ccc2c(c1)C(C)(C)N([O])C2(C)C (stereo unspecified)")
"inactive"
>>> qualitative_label("Cc1cccc(C)c1OCC(C)NCc1ccc2c(c1)C(C)(C)N(O)C2(C)C (stereo unspecified)")
"active"

-- ask Could you please tell me the result logged for Cc1cccc(C)c1OCC(C)NCc1ccc2c(c1)C(C)(C)N([O])C2(C)C (stereo unspecified) in this assay?
-- reply active

-- ask Could you please tell me the result logged for CC(N)COc1c(Cl)cccc1Cl (stereo unspecified) in this assay?
-- reply active

-- ask Could you please tell me the result logged for Cc1cccc(C)c1OCC(C)NCc1ccc2c(c1)C(C)(C)NC2(C)C (stereo unspecified) in this assay?
-- reply active

Just for reference, ChEMBL document CHEMBL3734745 is where these values come from.
